# melting point listing for each entry below
QUANTITY_KIND: melting point

# MOLECULE, VALUE_OBSERVED
data = [
    ("O=C1NC(=O)c2ccccc2/C1=C/Nc1ccc(N2CCOCC2)cc1", "257 to 258 °C"),
    ("NC(=O)Cc1nc2ccnc(-c3cccc(C(F)(F)F)c3)n2n1", "218 to 220 °C"),
    ("COc1cc2c(cc1OC)C(C(COC(=O)Nc1ccccc1)COC(=O)Nc1ccccc1)N(Cc1ccccc1)CC2 (stereo not given)", "185 °C"),
    ("Cn1c(C#N)ccc1[N+](=O)[O-]", "86 to 87 °C"),
    ("CN(C)c1ccc(CNc2nc(Nc3cccc(NS(C)(=O)=O)c3)nc3[nH]cnc23)cc1", "138 to 142 °C"),
    ("CCOC(=O)C1(C(=O)Nc2ccc(Br)cc2C)OC1C (stereo not given)", "57 to 60 °C"),
    ("O=C(O)CCCc1ccc(-c2ccccc2)cc1", "118 to 119 °C"),
    ("O=C(O)Cc1c(C(=O)c2ccc(Br)cc2)[nH]c2cc(Cl)ccc12", "199 to 201 °C"),
    ("CCOC(=O)c1ccc(OCc2nc(-c3ccccc3)oc2C)c(OC)c1", "103 to 104 °C"),
    ("N#Cc1c(Cl)ccc([N+](=O)[O-])c1N", "181 to 184 °C"),
]

###

QUANTITY_KIND: melting point

# MOLECULE, QUANTITY_KIND, VALUE_OBSERVED
records = [
    ("CCCc1nn(C)c2c(=O)[nH]c(Cc3ccc(N(CC)C(C)=O)cc3)nc12", "melting point", "149 to 151 °C"),
    ("COC(=O)c1cccn2ccnc12", "melting point", "67 to 69 °C"),
    ("Cc1ccc(S(=O)(=O)OCC2Cc3cccc(Nc4ccc(C)c(C)c4)c3O2)cc1 (stereo unspecified)", "melting point", "88 to 90 °C"),
    ("CC(=O)c1ccc(S(=O)(=O)Nc2ccon2)cc1", "melting point", "165 to 166 °C"),
    ("CCCCc1nc2c(N)nc3cccnc3c2n1CCCCNC(=O)CSc1ccncc1", "melting point", "128 to 129 °C"),
    ("CCCCCCCCCCCCc1c[nH]c(C(=O)O)c1", "melting point", "152 to 153 °C"),
    ("Nc1nc2ccccc2n1-c1cccc(-c2ccc3[nH]ccc3c2)c1", "melting point", "120 to 123 °C"),
    ("Cc1n[nH]c2c(C(=O)NC3(C4CC4)CC3)c(NC(=O)c3cc(C(F)(F)F)nn3-c3ncccc3Cl)c(Cl)cc12", "melting point", "228 to 229 °C"),
    ("CCc1c(C(=O)c2cccc(Cl)c2Cl)c2cccc(Br)c2n1CCCN(C)S(C)(=O)=O", "melting point", "111 °C"),
    ("CCCCNCc1ccc(-c2ccccc2S(=O)(=O)NC(C)(C)C)cc1", "melting point", "98 to 99 °C"),
    ("N#Cc1ccc(N2CCN(Cc3cnc4c(c3)NC(=O)[C@@H]3CCCN43)CC2)c(F)c1", "melting point", "226 °C"),
    ("COC(=O)CCc1ccc(OCC2CN(c3ccccc3)C(=O)O2)cc1 (stereo unspecified)", "melting point", "138 to 139 °C"),
    ("CCOCc1nc2c(N)nc(C)c(C)c2n1NC1CCOCC1", "melting point", "120 to 122 °C"),
    ("COC(=O)/C=C/n1cnc2ccc(C3CC3)cc2c1=O", "melting point", "178 °C"),
    ("CC(C)(C)OC(=O)NCC(O)c1ccsc1 (stereo unspecified)", "melting point", "103 to 105 °C"),
    ("CCC(C)(COc1nn2nc(C)nc2cc1C)CS(N)(=O)=O (stereo unspecified)", "melting point", "194 to 195 °C"),
    ("NP(N)(=O)Nc1ccccc1[N+](=O)[O-]", "melting point", "200 °C"),
    ("O=C(O)c1cn(C2CC2)c2nc(N3Cc4ccc(CO)cc4C3)c(F)cc2c1=O", "melting point", "> 300 °C"),
    ("Oc1ccc2c(c1)SCCc1c-2n(CCCCCN2CCCC2)c2ccccc12", "melting point", "158 °C"),
    ("O=C(O)CCS(=O)(=O)O", "melting point", "74.6 °C"),
    ("O=C(Nc1ccc(-n2nc(C(F)(F)F)cc2C(F)(F)F)cc1)c1cccc(C(F)(F)F)c1", "melting point", "143 to 145 °C"),
]

###

QUANTITY_KIND: melting point

# MOLECULE, VALUE_OBSERVED
data = [
    ("CN(C)C(=O)C(C)(C)n1cc(Br)c(-c2ccccc2)n1", "122 to 124 °C"),
    ("O=C(N1CCC2(C=Cc3ccccc32)CC1)N1CCCc2ccccc21", "130 to 133 °C"),
    ("CS(=O)(=O)NCC(=O)N1CCC(C2c3ncc(Br)cc3CCc3cc(Cl)cc(Cl)c32)CC1 (single isomer, unassigned; (+))", "120 to 140 °C"),
    ("Fc1cc(C(Cl)(Cl)Cl)c(Cl)c(C(Cl)Cl)c1Cl", "74 to 76 °C"),
    ("CNC(=O)Oc1ccc(N=Cc2ccccc2O)c(C)c1", "156 to 157 °C"),
]

###

The reader will find reported melting point values listed item by item below.
QUANTITY_KIND: melting point

# COMPOUND, VALUE_OBSERVED
measured = [
    ("CCOC(=O)C1=NN(c2cccc(Cl)c2)C(c2ccccc2)CO1 (stereo unspecified)", "103 to 104 °C"),
    ("COC(=O)C(C)NC(=O)CCc1ccc(C(=O)CCl)cc1 (stereo unspecified)", "122 to 124 °C"),
    ("O=C1N(Cc2ncccc2C(F)(F)F)c2c(F)cccc2C12COc1cc3c(cc12)OCCO3 (stereo unspecified)", "241 to 243 °C"),
    ("CCOC(=O)c1c(Cc2ccccc2)c2ccccc2[nH]c1=O", "230 °C"),
    ("CN(CCN(CCC12CC3CC(CC(C3)C1)C2)C(=O)NCCCc1ccncc1)S(C)(=O)=O", "165 to 167 °C"),
    ("CC(C)[C@@H]1C[C@@H]([C@H](CC2CCCCC2)NC(=O)OC(C)(C)C)OC1=O", "114 to 116 °C"),
    ("O=C(O)C1=Cc2cc(Cl)cc(Cl)c2OC1C(F)(F)F (stereo unspecified)", "166 to 168 °C"),
    ("CN1CCN(c2cc(NC(=O)OC(C)(C)C)c(N)cc2C#Cc2ccccc2)CC1", "81 to 85 °C"),
    ("O=C(O)C1CCc2c(oc3cc(Cl)ccc23)C1 (stereo unspecified)", "189 to 191 °C"),
    ("COCCNC(=O)c1cc(-c2cccc3cc(Cc4cccc(C(F)(F)F)c4)sc23)ccc1F", "94 to 95 °C"),
    ("O=S(Cc1ccccc1)c1ncc(Br)cn1 (stereo unspecified)", "101 °C"),
    ("CC(=O)N1c2ccccc2C[C@H]1C(N)=O", "> 260 °C"),
    ("O=C1c2ccccc2C(O)(c2ccccc2)N1CCCN1CC=C(c2ccccc2)CC1 (stereo unspecified)", "123 °C"),
    ("COc1cc(C)cc2ncc(Br)n12", "105 to 106 °C"),
    ("CC(C)(C)c1cc(C=O)n(Cc2ccc(C(F)(F)F)cc2Cl)n1", "147 to 149 °C"),
    ("CCOC(=O)c1cc2cc(CC)ccc2[nH]1", "94 °C"),
    ("CN(Cc1cccs1)C(=O)C1(c2ccc(F)cc2)CCCC1", "72 to 75 °C"),
    ("O=C(O)c1cn(-c2cccnc2)nc1Br", "270 to 278 °C"),
    ("O=[N+]([O-])C1=CN(Cc2ccccc2)C2C([N+](=O)[O-])=CN(Cc3ccccc3)C1N2Cc1ccccc1", "184 to 185 °C"),
    ("O=C(O)CCc1cn(-c2cccnc2)c2ccccc12", "147 to 149 °C"),
    ("COc1ccc(-c2sc3ccccc3c2C(=O)c2ccc(O)cc2)cc1", "188 to 189 °C"),
]

###

Listing: melting point of selected molecules
QUANTITY_KIND: melting point

# MOLECULE, VALUE_OBSERVED
records = [
    ("O=c1[nH]c(=Cc2ccc3ccccc3n2)c(=O)[nH]c1=Cc1ccc(F)cc1", "319 to 320 °C"),
    ("CN(C)C(=N[N+](=O)[O-])N(Cc1cnc(Cl)s1)C(=S)Oc1ccccc1", "161 to 162 °C"),
    ("CCCNC(=O)Oc1ccc2c(ccn2N(CCC)c2ccncc2)c1", "120 to 122 °C"),
    ("CCCc1cc(-c2noc3cc(O)ccc23)ccc1O", "227 to 229 °C"),
    ("O=C1NC(=O)c2c1c(-c1ccccc1Cl)cc1c2c2cc(O)ccc2n1CCC(O)CO (stereo not given)", "263 to 267 °C"),
    ("COc1ccc2[nH]c3c(c2c1[N+](=O)[O-])CCC3=O", "293 °C"),
    ("COc1ccc(C2CCN(C(=O)C(N)=O)CC2)cc1C=C1CCCC1", "116 to 117 °C"),
    ("CC[C@@H](c1ccc(C(F)(F)F)cc1)N(Cc1ccc(C(=O)OC)cc1)S(=O)(=O)c1ccc(Cl)cc1", "120 to 121 °C"),
    ("COc1nccnc1NS(=O)(=O)c1cccc(F)c1", "142 to 143 °C"),
    ("CC(C)(C)OC(=O)N1CCn2c(-c3ccccc3)cc(C#N)c2C1", "124 to 126 °C"),
]
